Here the recorded EC30 is given for each entry.
- targetDesc: F508del (Homo sapiens, UniProt P13569, DEL508-508)
- Construct: expressed in transfected cells
- Sequence (P13569 with tags, fused parts or gaps DEL508-508): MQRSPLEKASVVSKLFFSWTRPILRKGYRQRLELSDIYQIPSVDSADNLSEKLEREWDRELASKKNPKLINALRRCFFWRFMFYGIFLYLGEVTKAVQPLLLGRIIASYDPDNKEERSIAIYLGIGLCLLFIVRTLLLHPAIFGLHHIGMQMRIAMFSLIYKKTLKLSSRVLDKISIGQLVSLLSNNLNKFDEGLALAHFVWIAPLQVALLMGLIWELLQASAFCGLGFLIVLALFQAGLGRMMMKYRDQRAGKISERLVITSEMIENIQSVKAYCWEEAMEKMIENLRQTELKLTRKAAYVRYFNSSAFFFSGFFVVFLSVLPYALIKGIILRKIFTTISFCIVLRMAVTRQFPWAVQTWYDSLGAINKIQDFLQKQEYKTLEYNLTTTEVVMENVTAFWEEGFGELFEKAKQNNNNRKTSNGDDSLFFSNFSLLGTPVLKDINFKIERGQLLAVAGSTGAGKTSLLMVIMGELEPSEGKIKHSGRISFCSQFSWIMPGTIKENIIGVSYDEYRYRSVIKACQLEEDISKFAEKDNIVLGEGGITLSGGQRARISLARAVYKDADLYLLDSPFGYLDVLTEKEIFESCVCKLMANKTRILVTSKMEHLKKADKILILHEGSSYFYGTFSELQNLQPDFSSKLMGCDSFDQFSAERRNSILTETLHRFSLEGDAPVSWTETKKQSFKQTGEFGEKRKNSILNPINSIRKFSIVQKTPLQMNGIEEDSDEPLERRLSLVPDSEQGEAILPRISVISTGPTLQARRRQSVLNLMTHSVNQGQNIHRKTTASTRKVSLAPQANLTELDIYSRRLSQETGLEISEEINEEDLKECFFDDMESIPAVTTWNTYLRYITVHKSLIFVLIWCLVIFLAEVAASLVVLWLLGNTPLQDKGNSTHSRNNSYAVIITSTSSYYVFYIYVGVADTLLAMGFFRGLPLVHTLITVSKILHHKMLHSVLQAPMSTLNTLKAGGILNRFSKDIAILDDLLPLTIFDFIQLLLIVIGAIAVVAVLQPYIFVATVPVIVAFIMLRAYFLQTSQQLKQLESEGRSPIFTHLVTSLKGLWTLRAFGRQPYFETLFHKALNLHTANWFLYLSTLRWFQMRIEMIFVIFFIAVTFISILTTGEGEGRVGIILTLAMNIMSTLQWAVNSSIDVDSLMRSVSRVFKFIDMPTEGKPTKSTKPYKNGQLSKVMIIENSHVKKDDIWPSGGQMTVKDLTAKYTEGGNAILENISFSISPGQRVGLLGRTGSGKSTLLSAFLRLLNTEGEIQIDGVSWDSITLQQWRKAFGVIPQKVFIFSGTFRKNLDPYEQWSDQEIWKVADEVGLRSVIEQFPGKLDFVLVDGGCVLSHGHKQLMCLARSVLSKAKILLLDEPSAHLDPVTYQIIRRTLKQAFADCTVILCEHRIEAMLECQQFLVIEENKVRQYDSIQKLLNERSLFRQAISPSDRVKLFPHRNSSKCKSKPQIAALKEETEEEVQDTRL
- experimentSummary: Protocol 2: FRET membrane potential optical assay (VIPR), identification of correction compounds
- Type: cell-based
- settings: F508del CFTR modulator activity; compounds of Table 1; read-out: EC30

[
  {
    "compound": "C[C@@H]1CN(c2nc(-c3ccc4ccn(C)c4c3)ccc2C(=O)NS(=O)(=O)c2cccnc2N)C(C)(C)C1 [Compound 2401]",
    "targetDesc": "F508del (Homo sapiens, UniProt P13569, DEL508-508)",
    "reportedValue": "< 3000 nM"
  },
  {
    "compound": "CC1CN(c2ncccc2C(=O)NS(=O)(=O)c2cccc(N3CCOCC3)n2)C(C)(C)C1 (centres unmarked) [Compound 2464]",
    "targetDesc": "F508del (Homo sapiens, UniProt P13569, DEL508-508)",
    "reportedValue": "3000 to 10000 nM"
  },
  {
    "compound": "CC(C)COc1cc(F)cc(-c2ccc(C(=O)NS(=O)(=O)c3cccc(N)n3)c(N(C)CC3CCCCC3)n2)c1 [Compound 2289]",
    "targetDesc": "F508del (Homo sapiens, UniProt P13569, DEL508-508)",
    "reportedValue": "< 3000 nM"
  },
  {
    "compound": "CC1CN(c2ncc(-c3ccc(C(C)(C)C#N)cc3)cc2C(=O)NS(=O)(=O)c2cccc(N)n2)C(C)(C)C1 (centres unmarked) [Compound 2521]",
    "targetDesc": "F508del (Homo sapiens, UniProt P13569, DEL508-508)",
    "reportedValue": "< 3000 nM"
  },
  {
    "compound": "CC1CN(c2ncccc2C(=O)NS(=O)(=O)c2cccc(OCCC3CCNCC3)n2)C(C)(C)C1 (centres unmarked) [Compound 2452]",
    "targetDesc": "F508del (Homo sapiens, UniProt P13569, DEL508-508)",
    "reportedValue": "< 3000 nM"
  }
]

Task item: Return reported EC30; argument: C[C@@H]1CN(c2nc(-c3ccc(F)c(F)c3)ccc2C(=O)NS(=O)(=O)c2ccc[nH]c2=O)C(C)(C)C1 [Compound 2284]
Reply: < 3000 nM

Task item: Another compound to look at: COc1cc(CO)cc(-c2ccc(C(=O)NS(=O)(=O)c3ccc[nH]c3=O)c(N3C[C@@H](C)CC3(C)C)n2)c1 [Compound 2247]
Reply: 3000 to 10000 nM

Task item: Another: CC(C)COc1cc(F)cc(-c2ccc(C(=O)NS(=O)(=O)c3cccc(N)n3)c(N3CC(F)(F)C3)n2)c1 [Compound 2155]
Reply: 3000 to 10000 nM

Task item: Would you kindly repeat that for CC(C)COc1cc(F)cc(-c2ccc(C(=O)NS(=O)(=O)C3CCCC3)c(N3C[C@@H](C)CC3(C)C)n2)c1 [Compound 2113] ?
Reply: < 3000 nM

Task item: Quick one: C[C@@H]1CN(c2nc(-c3ccccc3)ccc2C(=O)NS(=O)(=O)c2ccc[nH]c2=O)C(C)(C)C1 [Compound 2445]
Reply: < 3000 nM

###

Each entry below carries its reported EC30.
- targetDesc: F508del (Homo sapiens, UniProt P13569, DEL508-508)
- Construct: expressed in transfected cells
- experimentSummary: Protocol 2: FRET membrane potential optical assay (VIPR), identification of correction compounds
- Format: cell-based
- settings: F508del CFTR modulator activity; compounds of Table 1; read-out: EC30

Sample answers from the record:
[
  {
    "compound": "CC1CN(c2ncccc2C(=O)NS(=O)(=O)c2cccc(Nc3ccc(F)cc3)n2)C(C)(C)C1 (centres unmarked) [Compound 2102]",
    "EC30": "< 3 µM"
  },
  {
    "compound": "CCOCCNc1cccc(S(=O)(=O)NC(=O)c2cccnc2N2CC(C)CC2(C)C)n1 (centres unmarked) [Compound 2354]",
    "EC30": "3 to 10 µM"
  },
  {
    "compound": "COc1ncc(-c2ccc(C(=O)NS(=O)(=O)c3ccc[nH]c3=O)c(N3C[C@@H](C)CC3(C)C)n2)cc1F [Compound 2444]",
    "EC30": "3 to 10 µM"
  },
  {
    "compound": "CC1CN(c2ncccc2C(=O)NS(=O)(=O)c2cccc(Nc3cnc4ccccc4c3)n2)C(C)(C)C1 (centres unmarked) [Compound 2449]",
    "EC30": "< 3 µM"
  }
]

Task item: Please report the recorded EC30 for C[C@@H]1CN(c2nc(-c3cc(F)ccc3O)ccc2C(=O)NS(=O)(=O)c2ccc[nH]c2=O)C(C)(C)C1 [Compound 2295] .
Reply: 3 to 10 µM

Task item: Again, but for CC1CN(c2ncccc2C(=O)NS(=O)(=O)c2cccc(N3CC[C@@H](NC(=O)OC(C)(C)C)C3)n2)C(C)(C)C1 (some centres unmarked) [Compound 2537]
Reply: 3 to 10 µM
